Hello, the source for this data is patent US8962648B2, in case you need it.

pIC50 overview
system: HT-1197 cells; assay: Cell-based assay, cellular growth (Cell Counting Kit-8, 72 hours), PBK-negative control cells; details: Homo sapiens, HT1197, 72 h
pIC50: −log10 of the molar value. Structures can show the parent of a compound that is named as a salt.
quantity: pIC50

In [3]: df
Out[3]:
                                    molecule  value_observed
 0  CN[C@H](C)c1ccc(-c2c(O)ccc3[nH]c(=O)c4sccc4c23)cc1 [Compound 1052, hydrochloride]            6.35
 1  NCCc1ccc(-c2c(O)cc(Br)c3[nH]c(=O)c4sccc4c23)cc1F [Compound 1213, hydrochloride]            5.77
 2  COc1cc(C)c2[nH]c(=O)c3sccc3c2c1-c1ccc(C(CN)C(C)C)c(F)c1 (centres unmarked) [Compound 1283, hydrochloride]            6.28
 3  Cc1cc(O)c(-c2ccc(CC(C)N)cc2)c2c1[nH]c(=O)c1sccc12 (centres unmarked) [Compound 1242, hydrochloride]            6.38
 4  CNCC(c1ccc(-c2c(O)cc(C)c3[nH]c(=O)c4sccc4c23)cc1F)C(C)C (centres unmarked)            6.47
 5  C[C@@H](CN)c1ccc(-c2c(O)cc(Br)c3[nH]c(=O)c4sccc4c23)cc1 [Compound 1176, hydrochloride]            7.00
 6  CC(C)C(CN)c1ccc(-c2c(O)ccc3[nH]c(=O)c4sccc4c23)cc1 (centres unmarked)            6.38
 7  Cc1cc(O)c(-c2ccc(CCN)cc2)c2c1[nH]c(=O)c1sccc12 [Compound 1191, hydrochloride]            6.32
 8  CNC[C@H](C)c1ccc(-c2c(OC)cc(C)c3[nH]c(=O)c4sccc4c23)cc1F [Compound 1316, hydrochloride]            6.64
 9  COc1cc(C)c2[nH]c(=O)c3sccc3c2c1-c1ccc(C(C)CN)c(F)c1 (centres unmarked) [Compound 1273, hydrochloride]            6.70
10  Cc1cc(O)c(-c2ccc(C(C)CN)c(F)c2)c2c1[nH]c(=O)c1sccc12 (centres unmarked) [Compound 1190, hydrochloride]            6.96

* * *

molecular target: PBK (Homo sapiens (Human), UniProt Q96KB5); assay: Kinase assay (IMAP fluorescence polarization, FITC-labeled histone H3 peptide); format: biochemical
Sequence (Q96KB5 whole entry): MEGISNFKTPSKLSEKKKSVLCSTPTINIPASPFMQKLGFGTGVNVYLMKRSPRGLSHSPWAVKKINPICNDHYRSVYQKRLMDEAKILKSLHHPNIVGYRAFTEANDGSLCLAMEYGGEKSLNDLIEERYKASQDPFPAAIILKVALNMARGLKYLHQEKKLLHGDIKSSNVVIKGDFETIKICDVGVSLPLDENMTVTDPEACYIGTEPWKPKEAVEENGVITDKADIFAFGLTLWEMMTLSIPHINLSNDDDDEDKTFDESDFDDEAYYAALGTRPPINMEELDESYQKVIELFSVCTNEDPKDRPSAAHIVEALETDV
Counter-ions that a name gives are not always drawn.
IC50 overview
quantity: IC50 (nM)

In [3]: df
Out[3]:
                                   molecule  quantity  units  value_observed
0  Cc1cc(O)c(-c2ccc(C(C)CN(C)C)c(F)c2)c2c1[nH]c(=O)c1sccc12 (stereo not shown) [Compound 1193, hydrochloride]      IC50     nM              46
1  Cc1cc(O)c(-c2ccc(CC(C)N)cc2)c2c1[nH]c(=O)c1sccc12 (stereo not shown) [Compound 1242, hydrochloride]      IC50     nM              37
2  C[C@@H](CN(C)C)c1ccc(-c2c(O)ccc3[nH]c(=O)c4sccc4c23)cc1 [Compound 1188, hydrochloride]      IC50     nM             2.5
3  Cc1cc(O)c(-c2ccc([C@@H](C)CN(C)C)c(F)c2)c2c1[nH]c(=O)c1sccc12 [Compound 1311, hydrochloride]      IC50     nM              17
4  COc1cc(C)c2[nH]c(=O)c3sccc3c2c1-c1ccc([C@H](C)CN)c(F)c1 [Compound 1310, hydrochloride]      IC50     nM              54
5  CNC[C@H](C)c1ccc(-c2c(O)cc(C)c3[nH]c(=O)c4sccc4c23)cc1F [Compound 1315, hydrochloride]      IC50     nM             8.1
6  COc1ccc2[nH]c(=O)c3sccc3c2c1-c1ccc(C(CN)C2CCCC2)cc1 (stereo not shown) [Compound 1239, hydrochloride]      IC50     nM              23

* * *

test system: HT-1197 cells; experiment: Cell-based assay, cellular growth (Cell Counting Kit-8, 72 hours), PBK-negative control cells; details: Homo sapiens, HT1197, 72 h
pIC50: −log10 of the molar value. Structures can show the parent of a compound that is named as a salt.
quantity: pIC50

>>> print(df.to_string())
                                   compound  value_observed
0  COc1ccc2[nH]c(=O)c3sccc3c2c1-c1ccc([C@@H](C)CN)cc1 [Compound 1161, hydrochloride]            6.09
1  Cc1cc(O)c(-c2ccc(C(CN)C(C)C)cc2)c2c1[nH]c(=O)c1sccc12 (stereo not shown) [Compound 1274]            6.74
2  C[C@@H](CN)c1ccc(-c2c(O)cc(Cl)c3[nH]c(=O)c4sccc4c23)cc1 [Compound 1166, hydrochloride]            6.92
3  CNC[C@H](C)c1ccc(-c2c(O)cc(C)c3[nH]c(=O)c4sccc4c23)cc1F [Compound 1315, hydrochloride]            7.00
4  Cc1cc(O)c(-c2ccc([C@H](C)CN(C)C)c(F)c2)c2c1[nH]c(=O)c1sccc12 [Compound 1399, hydrochloride]            6.33
5  Cc1cc(O)c(-c2ccc([C@@H](C)CN(C)C)c(F)c2)c2c1[nH]c(=O)c1sccc12 [Compound 1311, hydrochloride]            6.96
6  NCC(c1ccc(-c2c(O)ccc3[nH]c(=O)c4sccc4c23)cc1)C1CCCC1 (stereo not shown) [Compound 1236]            6.00

* * *

IC50 overview
target: PBK (Homo sapiens (Human), UniProt Q96KB5); test: Kinase assay (IMAP fluorescence polarization, FITC-labeled histone H3 peptide); type: biochemical
Where a name gives a salt, the structure may show the parent alone.
quantity: IC50

>>> print(df.to_string())
                                   molecule  quantity  value_observed
0  COc1ccc2[nH]c(=O)c3sccc3c2c1-c1ccc(C(CN)C(C)C)cc1 (centres unmarked) [Compound 1253, hydrochloride]      IC50          4.1 nM
1  CNCC(C)c1ccc(-c2c(OC)cc(C)c3[nH]c(=O)c4sccc4c23)cc1F (centres unmarked) [Compound 1286, hydrochloride]      IC50           43 nM
2  CNC[C@H](C)c1ccc(-c2c(OC)cc(C)c3[nH]c(=O)c4sccc4c23)cc1F [Compound 1316, hydrochloride]      IC50           33 nM
3  NCCc1ccc(-c2c(O)cc(Cl)c3[nH]c(=O)c4sccc4c23)cc1 [Compound 1133, hydrochloride]      IC50           20 nM
4  Cc1cc(O)c(-c2ccc([C@H](C)CN(C)C)c(F)c2)c2c1[nH]c(=O)c1sccc12 [Compound 1399, hydrochloride]      IC50           58 nM
5  C[C@@H](N)c1ccc(-c2c(O)cc(Cl)c3[nH]c(=O)c4sccc4c23)cc1 [Compound 1081, hydrochloride]      IC50          8.6 nM
6  CCN(C)C[C@H](C)c1ccc(-c2c(O)cc(C)c3[nH]c(=O)c4sccc4c23)cc1 [Compound 1379, hydrochloride]      IC50           76 nM
7  COc1cc(C)c2[nH]c(=O)c3sccc3c2c1-c1ccc(C(C)CN)c(F)c1 (centres unmarked) [Compound 1273, hydrochloride]      IC50           40 nM

* * *

IC50 overview
target: PBK (Homo sapiens (Human), UniProt Q96KB5); test: Kinase assay (IMAP fluorescence polarization, FITC-labeled histone H3 peptide); type: biochemical
Counter-ions that a name gives are not always drawn.
quantity: IC50 (nM)

In [3]: df
Out[3]:
                                   compound  units  value_observed
0  CC(N)c1ccc(-c2c(O)cc(Cl)c3[nH]c(=O)c4sccc4c23)cc1 (stereo not shown) [Compound 1041, hydrochloride]     nM              12
1  CC(CN(C)C)c1ccc(-c2c(O)ccc3[nH]c(=O)c4sccc4c23)cc1 (stereo not shown) [Compound 1112, hydrochloride]     nM             3.3
2  CC[C@@H](CNC)c1ccc(-c2c(O)cc(C)c3[nH]c(=O)c4sccc4c23)cc1 [Compound 1380, hydrochloride]     nM              85
3  COc1cc(C)c2[nH]c(=O)c3sccc3c2c1-c1ccc([C@@H](C)CN)c(F)c1 [Compound 1317, hydrochloride]     nM              22
